# credit: paper PMC9482650

TARGET: T1, SHANK2, Q9UPX8
T1 sequence (Q9UPX8 621-730, limits assumed, looked up): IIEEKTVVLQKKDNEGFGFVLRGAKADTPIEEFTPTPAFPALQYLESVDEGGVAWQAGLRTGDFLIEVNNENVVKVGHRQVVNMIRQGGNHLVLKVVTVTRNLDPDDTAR
PROCEDURE TEXT: holdup assay
Parameters: key: below the threshold = too weak to quantify, mostly under pKd 3.1 to 4
TEST PARAMETERS: plain residues with an end cap or a label only (N-terminal biotin on a linker: ttds)
PROPERTY LABEL: pKd

Completed entries (count: 5):
SRPQRTQTQV [HPV67-E6, A4U7F2]; below the threshold
QSARYRDTEL [TJP2, Q9UDY2]; below the threshold
STLTIFETAL [ABCC4, O15439]; 4.85
SSRTRRETQL [HPV16-E6, P03126]; below the threshold
SVWLRKETRV [CYSLTR2, Q9NS75]; below the threshold

Your task in this section: give pKd for each listed record.
1. RSLEEEESQL [GRASP, Q7Z6J2]
2. PKTPPTDTSV [KIR3DL3, Q8N743]

Result ::
4.33
below the threshold
